B1: CPEB3 Ribozyme (parent)
chain: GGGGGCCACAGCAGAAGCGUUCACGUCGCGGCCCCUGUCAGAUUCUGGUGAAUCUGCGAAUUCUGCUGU

Variants of: B1
Test description: self-cleavage, relative activity (ratio to wild type); higher = more cleavage; co-transcriptional
Readout name: self-cleavage

* C24A A40G | 0.591
* G47C | 1
* U38G G65A | 0.257
* G41U U55G | 0.324
* G31A G50U | 0.889
* G58C U62A | 0.918
* G5A U46C | 0.945
* A16U C32G | 0.24
* G31U G56A | 0.386
* A40C C57G | 0.316
* C34G A52U | 0.661
* G3C U36C | 0.0612
* G30A G31C | 0.254
* C45A G50A | 1.02
* G30C C63G | 0.329
* C12U A42G | 0.863
* A8C C45A | 1.01
* C7A C57U | 0.172
* A23C A52C | 0.921
* G1U G41C | 0.036
* C18A C54U | 0.173
* G41A U55G | 0.379
